tested on: HIV-1 strain 103 N; assay: Retrovirucidal effect on HIV-1 strain 103 N (Table 3); format: cell-based; conditions: HIV-1 strain 103N (RT Lys-103 to Asn mutant); pIC50=-log IC50, IC50 in M
Readout Kind: HIV1 pIC50 strain 103N

Data request: Quick check: HIV1 pIC50 strain 103N of Cc1cc(C)cc(Cc2c3c([nH]c(=O)c2N(C)C)CCCC3)c1 ?
Data returned: 6.489

Data request: Quick one: CCc1c(C)[nH]c(=S)c(N(C)C)c1C(=O)c1cc(C)cc(C)c1
Data returned: 7.401

Data request: Quick one: CCc1c(C)[nH]c(=O)c(N(C)C)c1Cc1ccc(-c2ccccc2)cc1
Data returned: <5

Data request: Quick one: CCc1c(C)[nH]c(=O)c(N(C)C)c1Sc1cccc(C)c1
Data returned: 7.177

Data request: Quick one: CCc1c(C)[nH]c(=O)c(N(C)C)c1Sc1cccc(Br)c1
Data returned: 7.245

Data request: Quick one: CCc1c(C)[nH]c(=O)c(N2CCOCC2)c1Cc1cc(C)cc(C)c1
Data returned: <4

Data request: Quick one: CCc1c(C)[nH]c(=O)c(N(C)C)c1C(=O)c1cc(C)cc(C)c1
Data returned: 7.987

Data request: Quick one: CCc1c(C)[nH]c(=O)c(N(C)C)c1Cc1ccc(C)cc1C
Data returned: <4

Data request: Quick one: CCc1c(C)[nH]c(=O)c(N)c1C(O)c1cc(C)cc(C)c1 (centres unmarked)
Data returned: 5.026

Data request: Quick one: CCc1c(C)[nH]c(=O)c(N)c1CNCc1cccc(C)c1
Data returned: <4

Data request: Quick one: CCc1cccc(Cc2c(CC)c(C)[nH]c(=O)c2N(C)C)c1
Data returned: 6.718

Data request: Quick one: CCc1c(C)[nH]c(=O)c(N(C)CCOC)c1Cc1cccc(C(F)(F)F)c1
Data returned: 5.814

Data request: Quick one: CCc1c(C)[nH]c(=O)c(N(C)C)c1Cc1ccc(C(F)(F)F)cc1
Data returned: <5

Data request: Quick one: CCc1c(C)[nH]c(=O)c(NCc2cc(C)c(C)cc2OC)c1Cc1cc(C)cc(C)c1
Data returned: <4

Data request: Quick one: CCc1c(C)[nH]c(=O)c(N(C)CC)c1C(=O)c1cccc(Br)c1
Data returned: 7.433

Data request: Quick one: CCCN(CCC)c1c(Cc2cc(C)cc(C)c2)c(CC)c(C)[nH]c1=O
Data returned: 4.379

Data request: Quick one: CCc1c(C)[nH]c(=O)c(N)c1Cc1ccc(-c2ccccc2)cc1
Data returned: <5

Data request: Quick one: CCc1c(C)[nH]c(=O)c(N(C)C)c1CNc1ccc(C#N)cc1
Data returned: 5.828

Data request: Quick one: CCc1c(C)[nH]c(=O)c(N(C)CCOC)c1Cc1cc(C)cc(C)c1
Data returned: 7.128

Data request: Quick one: CCCCN(CCCC)c1c(Cc2cc(C)cc(C)c2)c(CC)c(C)[nH]c1=O
Data returned: <4

---

test system: HIV-1 strain IIIB; test: Retrovirucidal effect on HIV-1 strain IIIB (Table 3); type: cell-based; conditions: pIC50=-log IC50, IC50 in M
Readout Kind: HIV1 pIC50 strain IIIB
Please give the numeric answer without any surrounding text.

Data request: Quick check: HIV1 pIC50 strain IIIB of CCc1c(C)[nH]c(=O)c(NC)c1Cc1cc(C)cc(C)c1 [Compound 46] ?
Data returned: 8.119

Data request: Quick one: CCc1c(C)[nH]c(=O)c(N)c1Sc1cccc(C)c1 [Compound 159]
Data returned: 7.011

Data request: Quick one: CCc1c(C)[nH]c(=O)c(N(C)C)c1Cc1ccc(-c2ccccc2)cc1 [Compound 51]
Data returned: 5.384

Data request: Quick one: CCc1c(C)[nH]c(=O)c(N(C)C)c1Cc1cccc(O)c1 [Compound 122]
Data returned: 7.196

Data request: Quick one: CCOC(=O)Cn1c(C)c(CC)c(Cc2cc(C)cc(C)c2)c(N(C)C)c1=O [Compound 23]
Data returned: 5.254

Data request: Quick one: Cc1cc(C)cc(Cc2c(C)c(C)[nH]c(=O)c2N(C)C)c1 [Compound 33]
Data returned: 8.42

Data request: Quick one: CCc1c(C)[nH]c(=O)c(N)c1Sc1cc(C)cc(C)c1 [Compound 1]
Data returned: 7.699

Data request: Quick one: Cc1cccc(C(=O)c2c3c([nH]c(=O)c2N)CCC3)c1 [Compound 142]
Data returned: 4.889

Data request: Quick one: Cc1cccc(Cc2c3c([nH]c(=O)c2N)CCCC3)c1 [Compound 91]
Data returned: 5.73

Data request: Quick one: CCCN(C)c1c(Cc2cc(C)cc(C)c2)c(CC)c(C)[nH]c1=O [Compound 47]
Data returned: 7.767

Data request: Quick one: CCc1c(C)[nH]c(=O)c(N(C)C(C)COC)c1Cc1cc(C)cc(C)c1 (stereo not shown) [Compound 129]
Data returned: 8.398

Data request: Quick one: CCc1c(C)[nH]c(=O)c(N(C)C)c1Cc1cc(F)cc(F)c1 [Compound 38]
Data returned: 8.155

Data request: Quick one: CCc1c(C)[nH]c(=O)c(N(C)CCCCCO)c1Cc1cc(C)cc(C)c1 [Compound 123]
Data returned: 8.444

Data request: Quick one: Cc1cccc(C(=O)c2c(C)c(C)[nH]c(=O)c2N(C)C)c1 [Compound 96]
Data returned: 7.824

Data request: Quick one: CCc1c(C)[nH]c(=O)c(N)c1Sc1cccc(Br)c1 [Compound 188]
Data returned: 7.063

---

Please provide measured HIV1 pIC50 strain IIIB for the entries that follow.
tested on: HIV-1 strain IIIB; assay: Retrovirucidal effect on HIV-1 strain IIIB (Table 3); format: cell-based; conditions: pIC50=-log IC50, IC50 in M
Please give the numeric answer without any surrounding text.

Data request: Quick check: HIV1 pIC50 strain IIIB of CCc1c(C)[nH]c(=O)c(N(C)C)c1Cc1cccnc1 ?
Data returned: 7.889

Data request: Quick one: CCc1c(C)[nH]c(=O)c(N(C)C)c1C(=O)c1cc(Cl)cc(Cl)c1
Data returned: 8.699

Data request: Quick one: CCc1c(C)[nH]c(=O)c(N)c1Cc1cccc(F)c1
Data returned: 5.131

Data request: Quick one: Cc1cc(C)cc(Cc2cc(C)[nH]c(=O)c2N)c1
Data returned: 4.871

Data request: Quick one: CCc1c(C)[nH]c(=O)c(N(C)CCO)c1Cc1cccc(C)c1
Data returned: 8.42

Data request: Quick one: CCc1c(C)[nH]c(=O)c(N(C)C)c1Cc1cccc(C(F)(F)F)c1
Data returned: 8.086

Data request: Quick one: CCc1c(Cc2cc(C)cc(C)c2)c(N(C)C)c(=O)n(CC)c1C
Data returned: 5.519

Data request: Quick one: Cc1cccc(Cc2c(C)c(C)[nH]c(=O)c2N)c1
Data returned: 4.954

Data request: Quick one: CCc1c(C)[nH]c(=O)c(N(C)C)c1Cc1cccc(OC)c1
Data returned: 8.469

---

system: HIV-1 strain IIIB; experiment: Retrovirucidal effect on HIV-1 strain IIIB (Table 3); format: cell-based; details: pIC50=-log IC50, IC50 in M
Could you please mark satisfied for values of HIV1 pIC50 strain IIIB below 6 and not satisfied for values at or above it?

Data request: # check: HIV1 pIC50 strain IIIB < 6 for CCc1c(C)[nH]c(=O)c(N(C)CCCCCO)c1Cc1cccc(C)c1
Data returned: not satisfied

Data request: Quick one: CCc1c(C)[nH]c(=O)c(N(C)C)c1C(=O)c1ccc(OC)c(C)c1
Data returned: not satisfied

Data request: Quick one: CCc1c(C)[nH]c(=O)c(N)c1C(=O)c1cc(Br)cs1
Data returned: satisfied

Data request: Quick one: CCc1c(C)[nH]c(=O)c(N(C)C)c1Cc1ccc(C)cc1
Data returned: not satisfied

Data request: Quick one: CCc1c(C)[nH]c(=O)c(N2CCOCC2)c1Cc1cc(C)cc(C)c1
Data returned: not satisfied

Data request: Quick one: CCc1c(C)[nH]c(=O)c(N)c1Cc1cc(C)cc(C)c1
Data returned: not satisfied

Data request: Quick one: CCc1cccc(Cc2c(CC)c(C)[nH]c(=O)c2N)c1
Data returned: satisfied

Data request: Quick one: CCc1c(C)[nH]c(=O)c(NC)c1C(=O)c1cccc(Br)c1
Data returned: not satisfied

Data request: Quick one: CCc1[nH]c(=O)c(N(C)C)c(C(=O)c2cccc(C)c2)c1C
Data returned: not satisfied

Data request: Quick one: CCc1c(C)[nH]c(=O)c(N(C)C)c1Cc1cccc(CO)c1
Data returned: not satisfied

Data request: Quick one: CCc1c(C)[nH]c(=O)c(N(C)C)c1COc1cccc(C)c1
Data returned: not satisfied

Data request: Quick one: CCc1c(C)[nH]c(=O)c(NCC(C)C)c1Cc1cc(C)cc(C)c1
Data returned: not satisfied

Data request: Quick one: CCc1c(C)[nH]c(=O)c(N)c1Cc1ccc(C)cc1C
Data returned: satisfied
